Where do these numbers come from? They come from PubChem BioAssay (NCI).

Test system: SF-295 CNS
Assay: NCI tumour cell line growth inhibition, 48 h; in the data active means GI50 below about 0.43 µM; inactive means the rest
Outcomes: t for active, f for inactive

>  <Compound>
CO/N=C(\COc1ccc2c(c1)[nH]c1ccccc12)c1ccc(F)cc1

>  <Label class>
f

$$$$
>  <Compound>
CC(=O)OC12C=C(C)C(C(C)C1)C1C(=O)N(CCN3CCOCC3)C(=O)C12 (configuration not stated)

>  <Label class>
f

$$$$
>  <Compound>
CN=c1ccc2nc3ccc(N)cc3sc-2c1

>  <Label class>
f

$$$$
>  <Compound>
CC1=C2[C@@H](CC1)[C@]1(C)O[C@@](c3ccccc3)(C[C@H]1OC(=O)CO)[C@H]2OC(=O)/C=C/c1ccccc1

>  <Label class>
f

$$$$
>  <Compound>
O=C1OCC2=C1C(c1ccc(Cl)c(Cl)c1)c1cc3c(cc1N2CCO)OCCO3 (configuration not stated)

>  <Label class>
t

$$$$
>  <Compound>
CO[C@H]1CC(O[C@@H]2/C(C)=C/C[C@@H]3C[C@@H](C[C@]4(C=C[C@H](C)[C@@H](C5CCCCC5)O4)O3)OC(=O)[C@@H]3C=C(C)[C@@H](O)[C@H]4OC/C(=C\C=C\[C@@H]2C)[C@]43O)O[C@@H](C)C1O[C@H]1C[C@H](OC)[C@@H](O)[C@H](C)O1 (some centres not stated)

>  <Label class>
f

$$$$
>  <Compound>
CC(C)NCCCn1c(Sc2cc3c(cc2I)OCO3)nc2c(N)ncnc21

>  <Label class>
t

$$$$
